tested on: K-562 leukemia; assay: NCI tumour cell line growth inhibition, 48 h
VALUE TYPE: TGI

INSERT INTO assay_data (compound, result) VALUES
  ('COc1ccc(C(C#N)NCCCCCCNC(C#N)c2ccc(OC)cc2)cc1 (stereo not drawn)', '> 100 µM'),
  ('OCCN=C1c2ccccc2C2C(c3ccccc31)C1c3ccccc3C(=NCCO)c3ccccc3C21 (stereo not drawn)', '40.2 µM'),
  ('O=C(O)CN(c1ccccc1)S(=O)(=O)c1ccc(Cl)cc1', '> 100 µM');
